experiment: Pd(0) Larock indole macrocyclisation (aryl C-Br + TES-alkyne, ArNHAc; forms Trp C3a-C3 and N1-C2 bonds); Pd(OAc)2 0.5 eq, tBu3P·HBF4 1.0 eq, DIPEA 10 eq; conditions: the molecule shown is the open-chain precursor; 16-membered ring; toluene; 20.0 mM; 110.0 °C; 12.0 h; 5 steps
Reported ring closure, yield over several steps by item:

Example results:
CC[Si](C#CC[C@H](NC(=O)[C@@H]1CCCN1C(=O)[C@H](Cc1ccc(F)c(-c2ccc(NC(C)=O)c(Br)c2)c1)NC(=O)OC(C)(C)C)C(=O)OC)(CC)CC :: 31%
CC[Si](C#CC[C@H](NC(=O)[C@@H]1CCCN1C(=O)[C@H](Cc1cc(F)cc(-c2ccc(NC(C)=O)c(Br)c2)c1)N1C(=O)c2ccccc2C1=O)C(=O)OC)(CC)CC :: 23%

Entry under review: CC[Si](C#CC[C@H](NC(=O)[C@@H]1CCCN1C(=O)[C@H](Cc1cccc(-c2ccc(NC(C)=O)c(Br)c2)c1)N1C(=O)c2ccccc2C1=O)C(=O)OC)(CC)CC . Reported ring closure, yield over several steps? 30%

Recorded ring closure, yield over several steps for CC[Si](C#CC[C@H](NC(=O)[C@@H]1CCCN1C(=O)[C@H](Cc1ccc(C)c(-c2ccc(NC(C)=O)c(Br)c2)c1)N1C(=O)c2ccccc2C1=O)C(=O)OC)(CC)CC , please? 39%
